- experimental.details: DSSTox (CPDBAS) Carcinogenic Potency Database Summary MultiCellCall Results
- experimental.parameters: animal carcinogenicity bioassays, multi-cell call summary
The source made the active and inactive calls.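 The calls were made as follows: active = tumour findings in long-term animal cancer tests in more than one sex, species or organ; inactive = no tumour finding and more than one negative test.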
Reply using exactly one outcome from active, inactive

Task: Called result for CC1=CC(=O)NS(=O)(=O)O1
Output: inactive

Task: Called result for C=CC(=O)O
Output: inactive

Task: Called result for CC(Oc1cc(Cl)ccc1Cl)C(=O)O (configuration not stated)
Output: inactive

Task: Called result for O=C1C=CC(=O)C=C1
Output: active

Task: Called result for O=C1Nc2ccc(Cl)cc2C(c2ccccc2)=NC1O (configuration not stated)
Output: active

Task: Called result for CCN(Cc1cccc(S(=O)(=O)O)c1)c1ccc(C(=C2C=CC(=[N+](CC)Cc3cccc(S(=O)(=O)O)c3)C=C2)c2ccccc2S(=O)(=O)[O-])cc1
Output: inactive

Task: Called result for C[C@@H]1CCC[C@H](C)N1CCCC(O)(c1ccccc1)c1ccccn1 (some centres not stated)
Output: inactive

Task: Called result for C/C=C/C=C/C=O
Output: active

Next:
Task: Called result for O=[N+]([O-])c1ccc(-c2cscn2)o1
Output: active

Task: Called result for Nc1ccc2nc3ccccn3c2n1
Output: active

Task: Called result for Nc1nc(N)nc(-c2ccccc2)n1
Output: inactive

Task: Called result for Clc1cc2c(cc1Cl)Oc1cc(Cl)c(Cl)cc1O2
Output: active

Task: Called result for O=NN(CC(F)(F)F)CC(F)(F)F
Output: inactive

Task: Called result for O=Nc1ccc(Nc2ccccc2)cc1
Output: active

Task: Called result for COC(=O)c1ccc(C(=O)OC)cc1
Output: inactive

Task: Called result for OCCN(CCO)CCO
Output: active
